// provenance: paper PMC5540273

System: DLK
Construct: gene MAP3K12
Settings: concentration: 1 μM,replicates: in singlicate; n = 1;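 note: KINOMEscan kinase panel screen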
%Inh less than 30% is Condition met; %Inh greater than or equal to 30% is Condition not met.

smiles_record=CCn1c(-c2nonc2N)nc2c(C#CC(C)(C)O)nc(OCCN)cc21.Cl.Cl answer_label="Condition met"
smiles_record=Cc1ccc2c(-c3ccncc3)c(-c3ccc(F)cc3)nn2c1.Cl answer_label="Condition met"
smiles_record=CCN(CC)CCOc1ccc(Nc2ncc3cc(-c4c(Cl)cccc4Cl)c(=O)n(C)c3n2)cc1 answer_label="Condition not met"
smiles_record=Cc1cc2cn[nH]c2cc1-c1cccc2c(N)c(C(N)=O)nnc12 answer_label="Condition not met"
smiles_record=Cl.Cl.NC[C@H](CC1CCCCC1)NC(=O)c1cc(Br)c(-c2ccnc3[nH]ccc23)s1 answer_label="Condition met"
smiles_record=CCN(CC)CCCCNc1ncc2cc(-c3c(Cl)cccc3Cl)c(NC(=O)NC(C)(C)C)nc2n1 answer_label="Condition not met"
smiles_record=C[C@H]1Oc2cc(cnc2N)-c2c(nn(C)c2C#N)CN(C)C(=O)c2ccc(F)cc21 answer_label="Condition met"
smiles_record=Cc1cc(C(=O)Nc2ccc(Oc3ccc4nc(NC(=O)C5CC5)cn4n3)cc2)nn1-c1ccccc1 answer_label="Condition met"

###

Test system: LATS2
Details: concentration: 1 μM,replicates: in singlicate; n = 1
%Inh below 90% gives criterion not met; %Inh at or above it gives criterion met.

smiles_record=C[C@@H](Oc1cc(-c2cnn(C3CCNCC3)c2)cnc1N)c1c(Cl)ccc(F)c1Cl target_or_test_system=LATS2 answer_label="criterion not met"
smiles_record=Cl.Cl.NC[C@H](CC1CCCCC1)NC(=O)c1cc(Br)c(-c2ccnc3[nH]ccc23)s1 target_or_test_system=LATS2 answer_label="criterion met"
smiles_record=Cc1occc1-c1nc(N)c(OC[C@@H](N)Cc2c[nH]c3ccccc23)cc1-c1cc2c(C)n[nH]c2cn1 target_or_test_system=LATS2 answer_label="criterion met"
smiles_record=CN(C)CCOc1ccc(-c2cc(-c3c[nH]nc3-c3ccccn3)ccn2)cc1 target_or_test_system=LATS2 answer_label="criterion not met"
smiles_record=Cc1ccc(-n2nc(C(C)(C)C)cc2NC(=O)Nc2ccc(OCCN3CCOCC3)c3ccccc23)cc1 target_or_test_system=LATS2 answer_label="criterion not met"
smiles_record=Cc1cc(C(=O)Nc2ccc(Oc3ccc4nc(NC(=O)C5CC5)cn4n3)cc2)nn1-c1ccccc1 target_or_test_system=LATS2 answer_label="criterion not met"
smiles_record=COc1ccc(C[C@@H](CN)NC(=O)c2cc(Br)c(-c3ccnc4[nH]ccc34)s2)cc1.Cl.Cl target_or_test_system=LATS2 answer_label="criterion met"

###

Measured %Inh of individual entries
Test system: TGFBR1
Details: concentration: 1 μM,replicates: in singlicate; n = 1
measured quantity: %Inh (%)

smiles_record=Cl.Oc1cc(-c2nc(-c3ccccc3)[nH]c2-c2ccncc2)ccc1Cl target_or_test_system=TGFBR1 measured_quantity=%Inh meas_value=67
smiles_record=CCn1c(-c2nonc2N)nc2c(C#CC(C)(C)O)nc(OCCN)cc21.Cl.Cl target_or_test_system=TGFBR1 measured_quantity=%Inh meas_value=0
smiles_record=CCN(CC)CCCCNc1ncc2cc(-c3c(Cl)cccc3Cl)c(NC(=O)NC(C)(C)C)nc2n1 target_or_test_system=TGFBR1 measured_quantity=%Inh meas_value=80
smiles_record=O=C(NCCNc1ccnc(NCc2ccc(F)cc2)n1)c1cc2ccccc2s1 target_or_test_system=TGFBR1 measured_quantity=%Inh meas_value=6
smiles_record=C[C@H]1Oc2cc(cnc2N)-c2c(nn(C)c2C#N)CN(C)C(=O)c2ccc(F)cc21 target_or_test_system=TGFBR1 measured_quantity=%Inh meas_value=33
smiles_record=C[C@@H](Oc1cc(-c2cnn(C3CCNCC3)c2)cnc1N)c1c(Cl)ccc(F)c1Cl target_or_test_system=TGFBR1 measured_quantity=%Inh meas_value=46
smiles_record=C=CC(=O)Nc1cc2c(Nc3ccc(F)c(Cl)c3)ncnc2cc1OCCCN1CCOCC1 target_or_test_system=TGFBR1 measured_quantity=%Inh meas_value=22
smiles_record=Cl.Cl.NC[C@H](Cc1ccc(C(F)(F)F)cc1)NC(=O)c1cc(Br)c(-c2ccnc3[nH]ccc23)s1 target_or_test_system=TGFBR1 measured_quantity=%Inh meas_value=0
smiles_record=C[C@@H]1CCN(C(=O)CC#N)C[C@@H]1N(C)c1ncnc2[nH]ccc12 target_or_test_system=TGFBR1 measured_quantity=%Inh meas_value=0
smiles_record=NC(=O)c1cc(-c2ccccc2)cc2c(C3CCNCC3)c[nH]c12 target_or_test_system=TGFBR1 measured_quantity=%Inh meas_value=0

###

Measured %Inh of individual entries
Tested on: AURKC
Conditions: concentration: 1 μM,replicates: in singlicate; n = 1
measured quantity: %Inh (%)

smiles_record=Cc1n[nH]c2ccc(-c3cc(OC[C@@H](N)Cc4ccccc4)cnc3-c3ccoc3)cc12.O=C(O)C(F)(F)F.O=C(O)C(F)(F)F target_or_test_system=AURKC meas_value=0
smiles_record=CCN(CC)CCOc1ccc(Nc2ncc3cc(-c4c(Cl)cccc4Cl)c(=O)n(C)c3n2)cc1 target_or_test_system=AURKC meas_value=95.4
smiles_record=Cl.Cl.NC[C@H](Cc1ccc(C(F)(F)F)cc1)NC(=O)c1cc(Br)c(-c2ccnc3[nH]ccc23)s1 target_or_test_system=AURKC meas_value=67
smiles_record=C[C@@H](Oc1cc(-c2cnn(C3CCNCC3)c2)cnc1N)c1c(Cl)ccc(F)c1Cl target_or_test_system=AURKC meas_value=86
smiles_record=CC(C)Nc1cc(-c2ccc3c(N)n[nH]c3c2)nc(N)n1 target_or_test_system=AURKC meas_value=40
smiles_record=NC(=O)c1cc(-c2ccccc2)cc2c(C3CCNCC3)c[nH]c12 target_or_test_system=AURKC meas_value=57
smiles_record=Cc1occc1-c1nc(N)c(OC[C@@H](N)Cc2c[nH]c3ccccc23)cc1-c1cc2c(C)n[nH]c2cn1 target_or_test_system=AURKC meas_value=51
smiles_record=COc1ccc(C[C@@H](CN)NC(=O)c2cc(Br)c(-c3ccnc4[nH]ccc34)s2)cc1.Cl.Cl target_or_test_system=AURKC meas_value=92.4

###

System: NEK3
Conditions: concentration: 1 μM,replicates: in singlicate; n = 1
%Inh less than 30% is 1 (yes); %Inh greater than or equal to 30% is 0 (no).

molecule="Cc1occc1-c1nc(N)c(OC[C@@H](N)Cc2c[nH]c3ccccc23)cc1-c1cc2c(C)n[nH]c2cn1 [GSK1660450]" answer_label="1 (yes)"
molecule=CNC(=O)c1ccccc1Sc1ccc2c(/C=C/c3ccccn3)n[nH]c2c1 answer_label="0 (no)"
molecule="Cc1ccc2c(-c3ccncc3)c(-c3ccc(F)cc3)nn2c1.Cl [GW461484]" answer_label="1 (yes)"
molecule=O=C(NCCCN1CCOC1=O)c1cnc(NCc2cc(Cl)ccc2Cl)nc1NC1CCCC1 answer_label="0 (no)"
molecule="Cc1ccc(-n2nc(C(C)(C)C)cc2NC(=O)Nc2ccc(OCCN3CCOCC3)c3ccccc23)cc1 [GW839464]" answer_label="1 (yes)"
molecule="O=C(NCCNc1ccnc(NCc2ccc(F)cc2)n1)c1cc2ccccc2s1 [GSK1379944]" answer_label="1 (yes)"
molecule="CCn1c(-c2nonc2N)nc2c(C#CC(C)(C)O)nc(OCCN)cc21.Cl.Cl [GSK902056]" answer_label="1 (yes)"
molecule=CCN(CC)CCCCNc1ncc2cc(-c3c(Cl)cccc3Cl)c(NC(=O)NC(C)(C)C)nc2n1 answer_label="1 (yes)"
molecule="CN(C)CCOc1ccc(-c2cc(-c3c[nH]nc3-c3ccccn3)ccn2)cc1 [GW835314]" answer_label="0 (no)"
molecule=C[C@H]1Oc2cc(cnc2N)-c2c(nn(C)c2C#N)CN(C)C(=O)c2ccc(F)cc21 answer_label="1 (yes)"
molecule="CCN(CC)CCOc1ccc(Nc2ncc3cc(-c4c(Cl)cccc4Cl)c(=O)n(C)c3n2)cc1 [SB-601273]" answer_label="1 (yes)"

###

Measured %Inh of individual entries
Tested on: IRAK3
Details: concentration: 1 μM,replicates: in singlicate; n = 1
measured quantity: %Inh

molecule="CCN(CC)CCOc1ccc(Nc2ncc3cc(-c4c(Cl)cccc4Cl)c(=O)n(C)c3n2)cc1 [SB-601273]" meas_value=0%
molecule=Cc1cc(C(=O)Nc2ccc(Oc3ccc4nc(NC(=O)C5CC5)cn4n3)cc2)nn1-c1ccccc1 meas_value=21%
molecule=CCN(CC)CCCCNc1ncc2cc(-c3c(Cl)cccc3Cl)c(NC(=O)NC(C)(C)C)nc2n1 meas_value=0%
molecule="CC(C)Nc1cc(-c2ccc3c(N)n[nH]c3c2)nc(N)n1 [GSK2221681]" meas_value=0%
molecule="O=C(NCCNc1ccnc(NCc2ccc(F)cc2)n1)c1cc2ccccc2s1 [GSK1379944]" meas_value=17%
molecule="CCn1c(-c2nonc2N)nc2c(C#CC(C)(C)O)nc(OCCN)cc21.Cl.Cl [GSK902056]" meas_value=4%
molecule="Cl.Cl.Nc1nc(-c2ccc3c(N)n[nH]c3c2)cc(N2CCCC(NC(=O)c3ccccc3)C2)n1 (centres unmarked) [GSK2286775]" meas_value=0%
molecule=C[C@@H](Oc1cc(-c2cnn(C3CCNCC3)c2)cnc1N)c1c(Cl)ccc(F)c1Cl meas_value=99.5%
